# System tested: UniProt Q06495
# Protocol details: Npt2a activity cell based assay, membrane potential dye, CHO T-REx hNpt2a cells
# Experimental context: doxycycline-induced, depolarization by sodium phosphate influx, average or median values if tested more than once
# Description: For measuring Npt2a activity in a cell based assay, a stable CHO cell line with inducible Npt2a expression was generated. […] Activity of Npt2a was detected by following depolarization of cellular membrane potential by influx of sodium phosphate using fluorescent membrane potential dye kit BLUE (Molecular devices cat. R8034). […] Plates were analyzed with an in house CCD camera device using a λexc 510-545 nm/λem 565-625 nm filter. Fluorescence was detected for 15 sec (background measurement M1). […]
Below, each entry is listed with its recorded IC50.

- Compound: "Cc1cc(C(C)(C)O)n(-c2cc(Nc3c(C)c(-c4ccc(OC(F)(F)F)cc4)nn3CC3CC3)ncn2)n1"
  Unit: "nM"
  Relation symbol: "="
  IC50: 110
- Compound: "Cc1nn(-c2cc(Nc3nn(C)c(-c4ccc(F)cc4F)c3Cl)ncn2)c(C)c1Cl"
  Unit: "nM"
  Relation symbol: "="
  IC50: 20.5
- Compound: "CCOC(=O)c1c(C)nn(-c2cc(Nc3c(C)nn(-c4ccc(C#N)cc4)c3C)ncn2)c1C"
  Unit: "nM"
  Relation symbol: "<"
  IC50: 1.6
- Compound: "CSc1c(C)nn(-c2cc(Nc3c(C)c(-c4ccc(F)cc4)nn3CC3CC3)ncn2)c1C"
  Unit: "nM"
  Relation symbol: "="
  IC50: 6
- Compound: "Cc1cc(C)n(-c2cc(Nc3n[nH]c(-c4ccc(F)cc4)c3C)ncn2)n1"
  Unit: "nM"
  Relation symbol: "="
  IC50: 100
- Compound: "COc1c(C)nn(-c2cc(Nc3c(C)c(-c4ccc(C#N)cc4)nn3CC3CC3)ncn2)c1C"
  Unit: "nM"
  Relation symbol: "="
  IC50: 2
- Compound: "Cc1cc(C(C)(C)O)n(-c2cc(Nc3c(C)c(-c4ccc(C#N)cc4)nn3CC3CC3)ncn2)n1"
  Unit: "nM"
  Relation symbol: "="
  IC50: 111
- Compound: "Cc1cc(C(F)F)n(-c2cc(Nc3nn(C)c(-c4ccc(F)cc4)c3OC(F)F)ncn2)n1"
  Unit: "nM"
  Relation symbol: "="
  IC50: 12
- Compound: "CC(=O)c1c(C)nn(-c2cc(Nc3c(C)c(-c4ccc(C#N)cc4)nn3CC3CC3)ncn2)c1C"
  Unit: "nM"
  Relation symbol: "="
  IC50: 16
- Compound: "CCOC(=O)c1c(C)nn(-c2cc(Nc3c(C)c(-c4ccc(C#N)cc4)nn3C)ncn2)c1C"
  Unit: "nM"
  Relation symbol: "="
  IC50: 2
- Compound: "Cc1nn(-c2cc(Nc3c(C)c(-c4ccc(C#N)cc4)nn3CC3CC3)ncn2)c(C)c1C(C)(C)O"
  Unit: "nM"
  Relation symbol: "="
  IC50: 3
- Compound: "Cc1nn(-c2cc(Nc3c(C)c(-c4ccc(F)cc4)nn3CC3CC3)ncn2)c(C)c1C(O)C1CC1 (single isomer, unassigned) [Example 420]"
  Unit: "nM"
  Relation symbol: "="
  IC50: 24
- Compound: "Cc1nn(-c2cc(Nc3nn(C)c(-c4ccccc4)c3Cl)ncn2)c(C)c1Cl"
  Unit: "nM"
  Relation symbol: "="
  IC50: 11.3
- Compound: "COc1c(-c2ccc(C#N)cc2)nn(C)c1Nc1cc(-n2nc(C)c(C(O)C(F)(F)F)c2C)ncn1 (racemic)"
  Unit: "nM"
  Relation symbol: "="
  IC50: 415
- Compound: "CCOC(=O)c1cc(C)n(-c2cc(Nc3nn(C)c(-c4ccc(F)cc4)c3CC)ncn2)n1"
  Unit: "nM"
  Relation symbol: "="
  IC50: 1300
- Compound: "Cc1cc(C)n(-c2cc(Nc3cn(-c4ccc(F)cc4)nc3C)ncn2)n1"
  Unit: "nM"
  Relation symbol: "="
  IC50: 2230

* * *

# System tested: human Npt2a (Homo sapiens, UniProt Q06495)
# Construct: expressed in transfected cells
# Sequence (Q06495 1-639): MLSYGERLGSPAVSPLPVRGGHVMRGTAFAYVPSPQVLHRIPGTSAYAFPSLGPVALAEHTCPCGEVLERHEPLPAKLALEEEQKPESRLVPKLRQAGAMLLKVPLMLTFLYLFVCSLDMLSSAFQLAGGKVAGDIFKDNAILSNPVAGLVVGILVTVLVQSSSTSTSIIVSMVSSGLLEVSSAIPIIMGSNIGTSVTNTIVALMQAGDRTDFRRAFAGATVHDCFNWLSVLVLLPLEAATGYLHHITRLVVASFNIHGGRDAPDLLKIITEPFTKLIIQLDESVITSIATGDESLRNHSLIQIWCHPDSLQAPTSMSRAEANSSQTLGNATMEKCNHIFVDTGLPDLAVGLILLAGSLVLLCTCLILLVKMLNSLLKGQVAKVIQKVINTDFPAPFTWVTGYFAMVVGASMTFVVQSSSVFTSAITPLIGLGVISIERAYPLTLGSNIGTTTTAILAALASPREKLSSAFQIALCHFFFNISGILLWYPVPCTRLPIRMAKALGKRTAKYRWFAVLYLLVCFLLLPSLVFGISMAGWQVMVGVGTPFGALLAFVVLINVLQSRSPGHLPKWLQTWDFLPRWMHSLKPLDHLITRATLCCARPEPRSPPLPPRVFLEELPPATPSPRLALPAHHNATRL
# Protocol details: Npt2a activity cell based assay, membrane potential dye, CHO T-REx hNpt2a cells
# Experimental context: doxycycline-induced, depolarization by sodium phosphate influx, average or median values if tested more than once
# Experimental: For measuring Npt2a activity in a cell based assay, a stable CHO cell line with inducible Npt2a expression was generated. […] Activity of Npt2a was detected by following depolarization of cellular membrane potential by influx of sodium phosphate using fluorescent membrane potential dye kit BLUE (Molecular devices cat. R8034). […] Plates were analyzed with an in house CCD camera device using a λexc 510-545 nm/λem 565-625 nm filter. Fluorescence was detected for 15 sec (background measurement M1). […]
pIC50: −log10 of the molar value.
A collection of compounds and their measured pIC50

- Smiles string: "Cc1nn(-c2cc(Nc3nn(C)c(-c4ccc(F)cc4)c3OC(F)F)ncn2)c(C)c1C#N"
  System tested: "human Npt2a (Homo sapiens, UniProt Q06495)"
  pIC50: 8.15
- Smiles string: "Cc1nn(-c2cc(Nc3c(C)c(-c4ccc(C#N)cc4)nn3CC3CC3)ncn2)c(C)c1C#N"
  System tested: "human Npt2a (Homo sapiens, UniProt Q06495)"
  pIC50: 7.60
- Smiles string: "Cc1ccc(-c2nn(CC3CC3)c(Nc3cc(-n4nc(C)c(C(C)(C)O)c4C)ncn3)c2C)cc1"
  System tested: "human Npt2a (Homo sapiens, UniProt Q06495)"
  pIC50: 6.89
- Smiles string: "Cc1nn(-c2cc(Nc3c(C)c(-c4ccc(OC(F)(F)F)cc4)nn3C)ncn2)c(C)c1C(C)(C)O"
  System tested: "human Npt2a (Homo sapiens, UniProt Q06495)"
  pIC50: 6.69
- Smiles string: "CCc1c(Nc2cc(-n3cc4c(n3)CN(C(=O)OC(C)(C)C)CC4)ncn2)n[nH]c1-c1ccc(F)cc1"
  System tested: "human Npt2a (Homo sapiens, UniProt Q06495)"
  pIC50: 6.34
- Smiles string: "COCc1c(C)nn(-c2cc(Nc3c(C)c(-c4ccc(F)cc4)nn3CC3CC3)ncn2)c1C"
  System tested: "human Npt2a (Homo sapiens, UniProt Q06495)"
  pIC50: 8.40
- Smiles string: "CCc1c(Nc2cc(-n3nc4c(c3C)C(=O)CC4)ncn2)nn(C)c1-c1ccc(F)cc1"
  System tested: "human Npt2a (Homo sapiens, UniProt Q06495)"
  pIC50: 7.36
- Smiles string: "Cc1cc(C)n(-c2cc(Nc3nn(CC(F)F)c(-c4ccc(F)cc4)c3Cl)ncn2)n1"
  System tested: "human Npt2a (Homo sapiens, UniProt Q06495)"
  pIC50: 7.41
- Smiles string: "CCc1c(Nc2cc(-n3nc(C)c4ccncc43)ncn2)nn(C)c1-c1ccc(F)cc1"
  System tested: "human Npt2a (Homo sapiens, UniProt Q06495)"
  pIC50: 7.82
- Smiles string: "COCCn1nc(-c2ccc(F)cn2)c(C)c1Nc1cc(-n2nc(C)c(C(=O)N(C)C)c2C)ncn1"
  System tested: "human Npt2a (Homo sapiens, UniProt Q06495)"
  pIC50: 6.00
- Smiles string: "Cc1nn(-c2cc(Nc3c(Cl)c(-c4ccccc4)nn3C)ncn2)c(C)c1Cl"
  System tested: "human Npt2a (Homo sapiens, UniProt Q06495)"
  pIC50: 7.36
- Smiles string: "Cc1nn(-c2cc(Nc3n[nH]c(-c4ccccc4)c3C)ncn2)c(C)c1Cl"
  System tested: "human Npt2a (Homo sapiens, UniProt Q06495)"
  pIC50: 7.30
- Smiles string: "Cc1nn(-c2cc(Nc3n[nH]c(-c4ccc(F)cc4)c3C)ncn2)c(C(F)F)c1Cl"
  System tested: "human Npt2a (Homo sapiens, UniProt Q06495)"
  pIC50: 7.64
- Smiles string: "Cc1nn(-c2cc(Nc3c(C)c(-c4ccc(F)cc4)nn3CC3CC3)ncn2)c(C(F)F)c1Cl"
  System tested: "human Npt2a (Homo sapiens, UniProt Q06495)"
  pIC50: 7.89
- Smiles string: "CCOC(=O)c1c(C)nn(-c2cc(Nc3c(CC)c(-c4ccc(C#N)cc4)nn3CC3CC3)ncn2)c1C"
  System tested: "human Npt2a (Homo sapiens, UniProt Q06495)"
  pIC50: 8.70
- Smiles string: "CCOC(=O)c1c(C)nn(-c2cc(Nc3c(OC)c(-c4ccc(C#N)cc4)nn3CC3CC3)ncn2)c1C"
  System tested: "human Npt2a (Homo sapiens, UniProt Q06495)"
  pIC50: 7.15

meta.source: patent US11208400B2
